target_entity: DCAF1 WD40 domain (residues 1077-1390) (Homo sapiens, UniProt Q9Y4B6)
Construct: DCAF1 WD40 domain (residues 1077-1390)
Sequence (Q9Y4B6 1077-1390): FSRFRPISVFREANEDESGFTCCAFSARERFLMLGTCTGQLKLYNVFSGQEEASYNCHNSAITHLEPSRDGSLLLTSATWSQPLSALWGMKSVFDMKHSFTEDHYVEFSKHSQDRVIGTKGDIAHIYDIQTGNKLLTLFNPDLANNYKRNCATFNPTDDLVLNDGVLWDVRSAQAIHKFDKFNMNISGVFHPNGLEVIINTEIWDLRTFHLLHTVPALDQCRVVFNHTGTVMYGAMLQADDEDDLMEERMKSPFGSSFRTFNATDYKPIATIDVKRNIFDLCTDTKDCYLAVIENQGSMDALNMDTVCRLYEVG
procedure_details: DCAF1 binding assay by SPR (Biacore 8K+), DCAF1-3 KD
recorded_conditions: 25 °C, read-out: DCAF1-3 SPR (KD)
pKd: −log10 of the molar value.
Give measured pKd for each item. Keep answers brief.

Request: Record request: pKd value, item C=CC(=O)Nc1cccc(N2CCC[C@@H](Nc3cc(N4CCOCC4)ccn3)C2)c1
Response: < 3.70

Request: Also, CN(CCN)C(=O)C[C@H](NC(=O)c1cn[nH]c1-c1ccccc1F)c1cccc(Cl)c1 please.
Response: > 5.00

Request: Also, NCCc1cccc(N2CCC[C@@H](Nc3cc(N4CCOCC4)ccn3)C2)c1 please.
Response: < 3.70

Request: Also, c1cc2ccnc(N3CCC[C@@H](Nc4cc(N5CCOCC5)ccn4)C3)c2cn1 please.
Response: 3.70 to 4.00

Request: Also, NS(=O)(=O)c1nc(N2CCC[C@@H](Nc3cc(N4CCOCC4)ccn3)C2)cs1 please.
Response: < 3.70

Request: Also, OC1CCCN(c2ccnc(N[C@@H]3CCCN(c4cccc(F)c4)C3)c2)C1 (stereo partly shown) please.
Response: > 5.00

Request: Also, NC(=O)CCc1ccc(F)c(-c2[nH]ncc2C(=O)N[C@@H](CC(N)=O)c2cccc(Cl)c2)c1 please.
Response: 4.00 to 5.00

Request: Also, Fc1cccc(N2CCC[C@@H](Nc3cc(C4CCNCC4)ccn3)C2)c1 please.
Response: < 3.70

Request: Also, COc1cccc(N2CCC[C@@H](Nc3cc(N4CCOCC4)ncn3)C2)c1 please.
Response: 3.70 to 4.00

Request: Also, Fc1cccc(N2CCC[C@@H](Nc3cc(N4CCOCC4)ccn3)C23COC3)c1 please.
Response: < 3.70

Request: Also, c1ccc2c(N3CCC[C@@H](Nc4cncc(N5CCOCC5)c4)C3)nccc2c1 please.
Response: 4.00 to 5.00

Request: Also, Cc1cccc(F)c1-c1c(C(=O)N[C@@H](CC(N)=O)c2cccc(Cl)c2)c[nH]c1C(=O)c1ccc(N2CCCCC2)cc1 please.
Response: > 5.00

Request: Also, Fc1cccc(N2CCC[C@@H](Nc3cc(N4C[C@H]5C[C@@H](C4)O5)ncn3)C2)c1 please.
Response: < 3.70

Request: Also, CCC(=O)NC1CCC2(CC1)CCN(c1cccc(N[C@@H]3CCCN(c4cccc(F)c4)C3)c1)CC2 please.
Response: > 5.00

Request: Also, c1ccc(N2CCC[C@H]3[C@@H]2CCN3c2cc(N3CC4CC(C4)C3)ccn2)cc1 please.
Response: 4.00 to 5.00

Request: Also, C=CC(=O)NC1CCC2(CC1)CCN(c1ccnc(N[C@@H]3CCCN(c4cccc(F)c4)C3)c1)CC2 please.
Response: > 5.00

Request: Also, O=C1COc2cc(N3CCC[C@@H](Nc4cc(N5CCOCC5)ccn4)C3)cnc2N1 please.
Response: > 5.00

Request: Also, COc1ccc(C(=O)c2[nH]cc(C(=O)N[C@@H](CC(N)=O)c3cccc(Cl)c3)c2-c2c(F)ccc(F)c2C)cc1 please.
Response: > 5.00

Request: Also, OC[C@@H]1CCN(c2cccc(F)c2)C[C@H]1Nc1cc(N2CCCCC2)ccn1 please.
Response: 4.00 to 5.00

Request: Also, Fc1cccc(N2CCCC(C3(c4cc(N5CCOCC5)ccn4)CC3(F)F)C2)c1 (stereo not shown) please.
Response: < 3.70

Request: Also, NCCCc1cccc(N2CCC[C@@H](Nc3cc(N4CCOCC4)ccn3)C2)c1 please.
Response: 4.00 to 5.00

Request: Also, c1ccc2cc(N3CCC[C@@H](Nc4cc(N5CCOCC5)ncn4)C3)ncc2c1 please.
Response: < 3.70

Request: Also, C=CC(=O)NCC1CCCN(c2ccnc(N[C@@H]3CCCN(c4cccc(F)c4)C3)c2)C1 (stereo partly shown) please.
Response: 4.00 to 5.00

Request: Also, NC(=O)C[C@H](NC(=O)c1c[nH]nc1-c1cc(=O)[nH]cn1)c1cccc(Cl)c1 please.
Response: < 3.70

Request: Also, Fc1cccc(N2CCC[C@@H](Nc3cncc(N4CCCCC4)c3)C2)c1 please.
Response: < 3.70

Request: Also, Cc1sc2c(c1C)C(c1ccc(Cl)cc1)=N[C@@H](CC(=O)NCCCCCCCCCCCCCCCCCCCCC1CCN(c3ccnc(N4CC[C@@H]5[C@H]4CCCN5c4cccc(F)c4)c3)CC1)c1nnc(C)n1-2 please.
Response: < 3.70

Request: Also, NC(=O)C[C@H](NC(=O)c1cn[nH]c1-c1cccc(F)c1)c1cccc(Cl)c1 please.
Response: > 5.00

Request: Also, O[C@H]1CC[C@@H](Nc2cc(N3CCCCC3)ccn2)C[C@@H]1c1ccccc1 please.
Response: 4.00 to 5.00

Request: Also, O[C@H]1CCCN(c2ccnc(N3CC[C@@H]4[C@H]3CCCN4c3cccc(F)c3)c2)C1 please.
Response: > 5.00

Request: Also, O=C1Nc2cnc(N3CCCCC3)cc2NC12CCCN(c1cccc(F)c1)C2 (stereo not shown) please.
Response: 4.00 to 5.00

Request: Also, Fc1cccc(N2C[C@@H](F)C[C@@H](Nc3cc(N4CCOCC4)ccn3)C2)c1 please.
Response: 3.70 to 4.00

Request: Also, OC[C@@H]1[C@H](Nc2cc(N3CCOCC3)ccn2)CCCN1c1cccc(F)c1 please.
Response: < 3.70

Request: Also, c1cc(N2CCOCC2)cc(N[C@@H]2CCCN(c3cnn[nH]3)C2)n1 please.
Response: < 3.70

Request: Also, NC(=O)C[C@H](NC(=O)c1c[nH]nc1-c1cccc2nc[nH]c12)c1cccc(Cl)c1 [I-239] please.
Response: < 3.70

Ref: patent US20260373266A1
